Target: Mitogen-activated protein kinase 13 (Homo sapiens) (UniProt O15264);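 note: mean inhibition of p38delta, screened as part of the GSK PKIS kinase inhibitor set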
Sequence (O15264 whole entry): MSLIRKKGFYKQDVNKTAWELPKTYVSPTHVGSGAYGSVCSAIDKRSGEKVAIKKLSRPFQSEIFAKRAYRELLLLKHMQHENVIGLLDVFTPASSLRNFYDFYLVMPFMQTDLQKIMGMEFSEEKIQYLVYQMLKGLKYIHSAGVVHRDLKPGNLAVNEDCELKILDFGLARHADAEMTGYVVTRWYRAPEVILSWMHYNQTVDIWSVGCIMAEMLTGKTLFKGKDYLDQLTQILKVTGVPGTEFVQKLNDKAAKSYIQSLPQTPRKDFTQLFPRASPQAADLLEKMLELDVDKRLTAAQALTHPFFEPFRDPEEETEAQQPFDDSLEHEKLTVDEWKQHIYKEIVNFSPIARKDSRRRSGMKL
Conditions: at 1 µM
assay_readout: inhibition (%)
Give your result in % as a bare value.

| smiles_repr | inhibition (%) |
| --- | --- |
| COc1cc2ncn(-c3cc(OCc4ccccc4C(F)(F)F)c(C(N)=O)s3)c2cc1OC | 5.14 |

[Q] Give Mitogen-activated protein kinase 13 (Homo sapiens) (UniProt O15264) inhibition for "O=C1NC(=O)C(c2ccc(Cl)cc2)=C1Nc1ccc(Cl)c(C(=O)O)c1"
[A] -3.8

[Q] Give Mitogen-activated protein kinase 13 (Homo sapiens) (UniProt O15264) inhibition for "Nc1nc(-c2ccccn2)c(-c2ccc3ncccc3n2)s1"
[A] 5.95

[Q] Give Mitogen-activated protein kinase 13 (Homo sapiens) (UniProt O15264) inhibition for "Cc1cccc(-c2n[nH]cc2-c2ccc3ncccc3n2)n1"
[A] -0.48
